// provenance: PubChem BioAssay (NCI)

system: OVCAR-3 ovarian; assay: NCI tumour cell line growth inhibition, 48 h
*1 amine or outer side, *2 acyl side, *3 side chain or, on linkers, in order; H or OH if unused. Where a SMILES comes first, the peptide text is derived from it. [ ]: non-standard residue; d: D form. ξ: configuration not given here. Ile(3ξ) = CCC(C)[C@H](N)C(=O)O; X33 = C=CCC(O[*:1])C(=O)[*:2]; NMeV = CN[C@H](C(=O)O)C(C)C; NMeA = CN[C@@H](C)C(=O)O; βAla = NCCC(=O)O
Give measured TGI for each item. Keep answers brief.

## Input Please give the documented TGI of CCOC(=O)NC(Nc1ccc(OC(F)(F)F)cc1)(C(F)(F)F)C(F)(F)F
## Output > 100 µM

## Input Quote TGI reported for C=CCC1OC(=O)CCNC(=O)[C@H](C)N(C)C(=O)[C@H](C(C)C)N(C)C(=O)[C@H](C(C)CC)NC(=O)[C@@H]2CCCN2C1=O (some centres undefined) (cyclo([Ile(3ξ)][NMeV][NMeA][βAla][X33]P)) please.
## Output > 100 µM

## Input Report TGI for COc1cc(C(=O)c2c(-c3ccccc3)oc3c(OC)cccc23)cc(OC)c1O
## Output 1.66 µM

## Input Return reported TGI. Input molecule: CCN1C(=O)C(=C/C=C/c2ccc(OC)cc2)C(=O)N(CC)C1=S
## Output 31.2 µM

## Input Hello, please tell me recorded TGI for this one: CC(C)N(C(=O)C12C3C4C1C1C2C3C41C(=O)O)C(C)C (centres undefined)
## Output > 100 µM

## Input Report measured TGI; entry is CCOC(=O)c1c(NC(=O)COc2cccc3cccnc23)sc(C(=O)N(C)C)c1C
## Output 69.8 µM

## Input Give TGI for COC1=CC(=O)c2c(ccc3ncnc(N)c23)C1=O
## Output 3.03 µM

## Input Return the recorded TGI value; entry: COc1ccc(Nc2nn3c(=O)c4c(C)c(C)sc4nc3s2)cc1
## Output 78.8 µM

## Input Supply recorded TGI for CN1CCCC1c1cccnc1.O=C(O)c1ccccc1O.O=C([O-])c1ccccc1[OH2+].O=C([O-])c1ccccc1[OH2+].O=C([O-])c1ccccc1[OH2+].[Cu+2] (centres undefined) here.
## Output > 100 µM

## Input Give the value of TGI reported for the following: CCC1=C(C)C(=O)N/C1=C\c1[nH]c(C)c([C@H](C)CCN)c1C
## Output 30.1 µM

## Input Annotate the molecule COc1ccc(C23OCC(Cc4cc(OC)c(OC)cc42)C3COC(C)=O)cc1OC (centres undefined) with its measured TGI.
## Output > 100 µM

## Input Fill in TGI for record CCc1c(-c2ccc(OC)cc2)c(=O)oc2cc(O)ccc12
## Output 87.5 µM

## Input Consider the molecule N#CC[C@@H](O)COc1ccccc1 . State its measured TGI.
## Output > 100 µM

## Input Return TGI (reported value) for this molecule: COc1ccc2c(c1)oc1c(C)c3c(c(C)c12)C(=O)N(N)C3=O
## Output > 100 µM

## Input Answer with the recorded TGI for the molecule listed here: CC1OC(OC2C(O)C(OCCc3ccc(O)c(O)c3)OC(CO)C2OC(=O)/C=C/c2ccc(O)c(O)c2)C(O)C(O)C1OC1OCC(O)(CO)C1O (centres undefined)
## Output > 100 µM

## Input Supply measured TGI of COc1cc(C)c2c(c1C=O)Oc1c(c(C)c(O)c3c1C(O)OC3=O)OC2=O (centres undefined) in your reply.
## Output > 100 µM

## Input Consider the molecule c1cc(-c2ccc(-c3ccc(-c4ccc(-c5cccc6nsnc56)[nH]4)c4nsnc34)[nH]2)c2nsnc2c1 and give its recorded TGI.
## Output > 100 µM

## Input Given the molecule NC(=S)N/N=C/c1c[nH]c2ccccc12 , write its reported TGI.
## Output > 100 µM

## Input Consider the molecule COc1ccc(N2C(=O)C3c4[nH]c5ccccc5c4C4CCC(c5ccccc5)CC4C3C2=O)cc1 (centres undefined) . State its measured TGI.
## Output > 100 µM

###

system: OVCAR-5 ovarian; assay: NCI tumour cell line growth inhibition, 48 h; in the data active = GI50 below about 0.43 µM; inactive = the rest
Lab note: assign the record to one of label 1 for active, label 0 for inactive

## Input Answer briefly: the call reported for Cc1c([C@H](C(Cl)Cl)[C@H](O)[C@H]2C[C@H](C)C(=O)O2)ccc2c1C(=O)[C@H]1[C@H]2C[C@@H](Br)[C@@]23O[C@@H](CO[C@H]2O)CC13C (stereo partly specified) in this assay.
## Output label 1

## Input Which outcome was entered for the compound CCn1c2ccccc2c2cc(/C=C(/C#N)C(N)=S)ccc21 in this test?
## Output label 1

## Input Outcome logged for CC1OC(OC2C(O)C(OCCc3ccc(O)c(O)c3)OC(CO)C2OC(=O)/C=C/c2ccc(O)c(O)c2)C(O)C(O)C1OC1OCC(O)(CO)C1O (stereo unspecified) in this assay:
## Output label 0

## Input What did the test return for O=C1NC(=O)/C(=C/c2c(Cl)nc3sccn23)S1 ?
## Output label 0

## Input Given COc1cc(C(=O)c2c(-c3ccccc3)oc3c(OC)cccc23)cc(OC)c1O , state the outcome it received in this test.
## Output label 0

## Input How was CN(C)c1ccc(Nc2ncnc3ccccc23)cc1 classified in this test?
## Output label 0

###

Kindly state GI50 for each of the entries shown.
system: IGROV1 ovarian; assay: NCI tumour cell line growth inhibition, 48 h

## Input Look up and report measured GI50 for this entry: COc1ccc(-c2nnc(COc3ccc(Cl)cc3Cl)o2)cc1OC
## Output 4.22 µM

## Input Provide one value: measured GI50 of Cc1ccc(/C(=N/NS(=O)(=O)c2ccc([N+](=O)[O-])cc2)Sc2cc(Cl)c(C)cc2S(N)(=O)=O)cc1
## Output > 100 µM

## Input Give the measured GI50 for CN1CCCC1c1cccnc1.O=C(O)c1ccccc1O.O=C([O-])c1ccccc1[OH2+].O=C([O-])c1ccccc1[OH2+].O=C([O-])c1ccccc1[OH2+].[Cu+2] (centres undefined)
## Output 91.1 µM

## Input State, in one line, measured GI50 of N#Cc1c(-c2ccc(Cl)cc2)csc1NC(=O)Nc1ccc(Cl)c(C(F)(F)F)c1
## Output 0.626 µM

###

test system: MOLT-4 leukemia; assay: NCI tumour cell line growth inhibition, 48 h
Would you kindly list GI50 for each of these compounds?

## Input Check the records and state GI50 for C[CH2][Sn]([CH2]C)([O]C(=O)c1cccc(OC)c1)[O][Sn]([CH2]C)([CH2]C)[O]C(=O)c1cccc(OC)c1
## Output 27.9 µM

## Input Please give the documented GI50 of O=[N+]([O-])c1ccc(C(Br)c2ccc([N+](=O)[O-])cc2)cc1
## Output 2.56 µM

## Input Entry CC(=O)[CH-]C(=O)c1ccccc1.CC(=O)[CH-]C(=O)c1ccccc1.CCN(CC)CC[O-].CCN(CC)CC[O-].Cl.[Hf+4] needs its GI50 filled in; supply it.
## Output 65 µM

## Input Please give the documented GI50 of Cn1c(=O)n(CCCO)c(=O)c2c1nc(Oc1cccc(OC(F)(F)F)c1)n2Cc1ccc(Cl)cc1
## Output 5.21 µM

## Input Complete the entry with GI50 for O=C1C(Cl)=C(Nc2cccc(O)c2)C(=O)N1CCc1ccccc1
## Output 9.4 µM

## Input Find the measured GI50 of Cc1ccc(/C(=N/NS(=O)(=O)c2ccc([N+](=O)[O-])cc2)Sc2cc(Cl)c(C)cc2S(N)(=O)=O)cc1 and report it.
## Output > 100 µM

## Input For COc1cc(/C=C/C(=O)Nc2ccc3c(c2)/C(=C\c2cccn2C)C(=O)N3)cc(OC)c1OC , write its GI50.
## Output 4 µM

###

test system: IGROV1 ovarian; test: NCI tumour cell line growth inhibition, 48 h
Give measured TGI for each item. Keep answers brief.

## Input Fill in TGI for record O=C1O[C@@H](c2ccccc2)C[C@H]1CN1CCOCC1
## Output > 100 µM

## Input Report measured TGI; entry is Cc1c([C@H](C(Cl)Cl)[C@H](O)[C@H]2C[C@H](C)C(=O)O2)ccc2c1C(=O)[C@H]1[C@H]2C[C@@H](Br)[C@@]23O[C@@H](CO[C@H]2O)CC13C (stereo not given in full)
## Output > 29.6 µM

## Input Write down TGI measured for item CCN(C(=N)C#N)c1ccccc1
## Output > 100 µM

## Input Note TGI for the compound shown: COC(=O)CCC1=NOC(CC2CC(CCC(=O)OC)=NO2)C1 (stereo not given)
## Output > 100 µM

## Input Output measured TGI for this item: O=Cc1c(O)ccc2ccc(O)c(-c3c(O)ccc4ccc(O)cc34)c12
## Output > 100 µM

###

system: COLO 205 colon; experiment: NCI tumour cell line growth inhibition, 48 h; in the data active = GI50 below about 0.43 µM; inactive = the rest
Assign a class; possible classes are active, inactive

## Input What was the test verdict on CCOC(=O)c1ccc2c(c1)[n+](=O)c(C(=O)C1CCCS1)c(C(F)(F)F)n2[O-] (stereo not given) ?
## Output active

## Input Could you kindly confirm the outcome this assay logged for N#Cc1c(-c2ccc(Cl)cc2)csc1NC(=O)Nc1ccc(Cl)c(C(F)(F)F)c1 ?
## Output inactive

## Input Would you mind telling me which call this test gave O=C(/C=C/c1cc2ccccc2[nH]c1=O)c1ccc(Cl)cc1 ?
## Output inactive

## Input # fetch the recorded call for C=C1CC2(OC1=O)C(=O)N(C)c1ccc(I)cc12 (stereo not given) here
## Output inactive

## Input Per the assay record, what outcome was assigned to C=C1c2c(C)nn(-c3ccc(OC)cc3)c2N(C)C23C[C@@H]1C1(C)c4c(C)nn(-c5ccc(OC)cc5)c4N(C)C(C)(C[C@H]12)C3 (stereo not given in full) ?
## Output inactive
